# subject of test: UniProtKB A4I2Z3
# experimental details: biochemical
# Type: biochemical
experimental endpoint: LiTryS Activity ± 2σn-1 (%)

- COc1ccc(C2C(C(=O)c3ccc4c(c3)OCCO4)=C(O)C(=O)N2c2nc3ccc(C)cc3s2)cc1OC (centres unmarked): 87.6 ± 6.0; 4%
- Cc1ccc(CNCCCCCCCCCCNCc2ccc(C)cc2)cc1: 71.5 ± 5.8; 4%
- COc1cc(CNCCCCCCCCCCNCc2ccc(OCc3ccccc3)c(OC)c2)ccc1OCc1ccccc1: 78.1 ± 9.8; 6 (1.219) %
- Brc1ccc(CNCCCCCCCCCCNCc2ccc(Br)cc2)cc1: 75.2 ± 4.5; 3%
- COc1ccc(CNCCCCCCNCc2ccc(OC)cc2)cc1: 79.6 ± 5.6; 4%

====

# subject of test: LiTryS (Leishmania infantum trypanothione synthetase) (Leishmania infantum)
# experimental details: biochemical
# Format: biochemical
# recorded conditions: read-out: LiTryS IC50
pIC50: −log10 of the molar value.
experimental endpoint: pIC50

* CNCCNC(=O)CN1C(=O)Cc2c([nH]c3cc(C(F)(F)F)ccc23)-c2ccccc21 | 6.46

====

# subject of test: L. infantum trypanothione synthetase (LiTryS) (Leishmania infantum, UniProt A4I2Z3)
# Sequence (A4I2Z3 entry or part of it): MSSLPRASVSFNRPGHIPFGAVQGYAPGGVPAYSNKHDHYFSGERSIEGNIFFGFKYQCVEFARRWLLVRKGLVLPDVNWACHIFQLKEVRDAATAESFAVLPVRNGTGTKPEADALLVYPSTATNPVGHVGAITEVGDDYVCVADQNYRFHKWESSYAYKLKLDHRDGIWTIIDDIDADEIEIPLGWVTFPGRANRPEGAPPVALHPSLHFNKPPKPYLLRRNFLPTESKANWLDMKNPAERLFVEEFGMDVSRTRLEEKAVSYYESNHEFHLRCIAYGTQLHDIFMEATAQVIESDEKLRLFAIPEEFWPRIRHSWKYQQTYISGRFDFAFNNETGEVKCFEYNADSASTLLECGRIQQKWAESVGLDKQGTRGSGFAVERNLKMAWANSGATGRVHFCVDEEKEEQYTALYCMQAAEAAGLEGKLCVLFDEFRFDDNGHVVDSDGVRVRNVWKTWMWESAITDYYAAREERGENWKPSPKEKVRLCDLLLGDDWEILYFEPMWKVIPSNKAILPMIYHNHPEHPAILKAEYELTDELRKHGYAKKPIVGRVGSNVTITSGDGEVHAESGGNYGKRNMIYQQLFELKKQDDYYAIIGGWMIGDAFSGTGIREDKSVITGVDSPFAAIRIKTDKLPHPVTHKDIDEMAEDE
# experimental details: biochemical
# Type: biochemical
pKi: −log10 of the molar value.
experimental endpoint: pKi

• N[C@@H](CCC(=O)N[C@@H](CS)C(=O)NCC(=O)O)C(=O)O = 3.16

====

# subject of test: LiTryS (Leishmania infantum trypanothione synthetase) (Leishmania infantum)
# experimental details: biochemical
# Type: biochemical
# recorded conditions: read-out: LiTryS Activity ± 2σn-1 (%)
experimental endpoint: activity at 30 µM (%)

* COc1cc(CNCCCCCCNCc2ccc(OCc3ccccc3)c(OC)c2)ccc1OCc1ccccc1 | 73.7
* COc1ccc(C2C(C(=O)c3ccc4c(c3)OCCO4)=C(O)C(=O)N2c2nc3ccc(Cl)cc3s2)cc1 (centres unmarked) | 82.1
* COc1ccc(CNCCCNCc2ccc(OC)cc2)cc1 | 102
* [O-][n+]1onc2cc(F)ccc21 | 84.1
* Brc1ccc(CNCCCCCCCCCCCCNCc2ccc(Br)cc2)cc1 | 74.1
* CCNC(=S)Nc1nc2nc(N)ncc2cc1-c1ccc2c(c1)OCO2 | 86.4
* CC(C)(C)NC(=O)Nc1nc2nc(N)ncc2cc1-c1ccc2ccccc2c1 | 67.9
* Cn1c(=O)c2c(nc(N/N=C\c3ccc(O)cc3O)n2CC(O)COc2ccccc2)n(C)c1=O (centres unmarked) | 88.5
* COc1cc(C2C(C(=O)c3ccc4c(c3)OCCO4)=C(O)C(=O)N2c2nc3ccc(Cl)cc3s2)ccc1O (centres unmarked) | 85.3
* O=C(C1=C(O)C(=O)N(c2nc3ccccc3s2)C1c1ccc(F)cc1)c1ccc2c(c1)OCCO2 (centres unmarked) | 83.5
* COc1ccc(C2C(C(=O)c3ccc4c(c3)OCCO4)=C(O)C(=O)N2c2nc3ccccc3s2)cc1 (centres unmarked) | 83.5
* COc1ccc(C(=O)C2=C(O)C(=O)N(c3nc4ccc(Cl)cc4s3)C2c2ccc(F)cc2)cc1OC (centres unmarked) | 66
* COc1ccc(C2C(C(=O)c3ccc4c(c3)OCCO4)=C(O)C(=O)N2c2nc3ccc(OC)cc3s2)cc1 (centres unmarked) | 77.9
* COc1ccc(C2C(C(=O)c3ccc4c(c3)OCCO4)=C(O)C(=O)N2c2nc3ccc(C)cc3s2)cc1 (centres unmarked) | 83.9
* CC(C)(C)NC(=O)Nc1ncc2cc(-c3ccc4c(c3)OCO4)c(NC(=O)NC(C)(C)C)nc2n1 | 84.7
* COc1cc(CNCCCCNCc2ccc(OCc3ccccc3)c(OC)c2)ccc1OCc1ccccc1 | 76.6
* CCNC(=S)Nc1nc2nc(NCCCN3CCOCC3)ncc2cc1-c1cc(OC)cc(OC)c1 | 101

====

# subject of test: TbTryS (Trypanosoma brucei trypanothione synthetase) (Trypanosoma brucei brucei, UniProt Q8IEX1)
# Sequence (Q8IEX1 1-627): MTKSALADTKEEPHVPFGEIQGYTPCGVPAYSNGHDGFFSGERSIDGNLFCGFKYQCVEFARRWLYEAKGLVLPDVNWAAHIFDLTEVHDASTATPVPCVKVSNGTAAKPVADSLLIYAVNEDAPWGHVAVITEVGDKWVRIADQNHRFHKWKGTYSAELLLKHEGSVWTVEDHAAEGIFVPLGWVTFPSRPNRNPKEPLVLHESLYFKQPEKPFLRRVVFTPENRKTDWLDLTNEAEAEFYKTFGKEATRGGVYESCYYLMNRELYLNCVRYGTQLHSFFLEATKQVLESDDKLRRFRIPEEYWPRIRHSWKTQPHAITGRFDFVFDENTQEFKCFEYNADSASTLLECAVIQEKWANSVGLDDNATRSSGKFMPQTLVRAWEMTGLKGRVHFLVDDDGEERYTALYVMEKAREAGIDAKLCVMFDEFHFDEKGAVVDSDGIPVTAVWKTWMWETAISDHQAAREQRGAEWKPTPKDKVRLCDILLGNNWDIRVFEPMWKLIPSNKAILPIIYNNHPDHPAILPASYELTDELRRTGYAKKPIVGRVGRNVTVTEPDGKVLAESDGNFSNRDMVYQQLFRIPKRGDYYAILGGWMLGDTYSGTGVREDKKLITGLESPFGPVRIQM
# experimental details: biochemical
# recorded conditions: read-out: TbTryS Activity ± 2σn-1 (%)
Known activity at 30 µM of a selection of molecules
experimental endpoint: activity at 30 µM (%)

* COc1ccc(C2C(C(=O)c3ccc4c(c3)OCCO4)=C(O)C(=O)N2c2nc3ccccc3s2)cc1 (centres unmarked) [ADPKN165] | 166
* CCNC(=S)Nc1nc2nc(NCCCN3CCOCC3)ncc2cc1-c1cc(OC)cc(OC)c1 [ZVR159] | 81.3
* O=C(C1=C(O)C(=O)N(c2nc3ccccc3s2)C1c1ccc(F)cc1)c1ccc2c(c1)OCCO2 (centres unmarked) [ADPKN161] | 127
* COc1cc(CNCCCCCCCCNCc2ccc(OCc3ccccc3)c(OC)c2)ccc1OCc1ccccc1 [APC1-111] | 44.4
* Cn1c(=O)c2c(nc(N/N=C\c3ccc(O)cc3O)n2CC(O)COc2ccccc2)n(C)c1=O (centres unmarked) [TC227] | 102
* COc1ccc(C2C(C(=O)c3ccc4c(c3)OCCO4)=C(O)C(=O)N2c2nc3ccc(Cl)cc3s2)cc1 (centres unmarked) [AD84] | 119
* COc1ccc(C2C(C(=O)c3ccc4c(c3)OCCO4)=C(O)C(=O)N2c2nc3ccc(OC)cc3s2)cc1 (centres unmarked) [ADPKN160] | 116
* COc1ccc(C2C(C(=O)c3ccc4c(c3)OCCO4)=C(O)C(=O)N2c2nc3ccc(C)cc3s2)cc1 (centres unmarked) [AD81] | 128
* [O-][n+]1onc2cc(F)ccc21 [Compound J31] | 96.2
* COc1cc(C2C(C(=O)c3ccc4c(c3)OCCO4)=C(O)C(=O)N2c2nc3ccc(Cl)cc3s2)ccc1O (centres unmarked) [ADMRC158] | 119
* COc1cc(CNCCCCCCNCc2ccc(OCc3ccccc3)c(OC)c2)ccc1OCc1ccccc1 [APC1-101] | 38.8

====

Known TcTryS Activity ± 2σn-1 (%) of a selection of compounds
# subject of test: UniProt Q9GT49
# Sequence (Q9GT49 whole entry): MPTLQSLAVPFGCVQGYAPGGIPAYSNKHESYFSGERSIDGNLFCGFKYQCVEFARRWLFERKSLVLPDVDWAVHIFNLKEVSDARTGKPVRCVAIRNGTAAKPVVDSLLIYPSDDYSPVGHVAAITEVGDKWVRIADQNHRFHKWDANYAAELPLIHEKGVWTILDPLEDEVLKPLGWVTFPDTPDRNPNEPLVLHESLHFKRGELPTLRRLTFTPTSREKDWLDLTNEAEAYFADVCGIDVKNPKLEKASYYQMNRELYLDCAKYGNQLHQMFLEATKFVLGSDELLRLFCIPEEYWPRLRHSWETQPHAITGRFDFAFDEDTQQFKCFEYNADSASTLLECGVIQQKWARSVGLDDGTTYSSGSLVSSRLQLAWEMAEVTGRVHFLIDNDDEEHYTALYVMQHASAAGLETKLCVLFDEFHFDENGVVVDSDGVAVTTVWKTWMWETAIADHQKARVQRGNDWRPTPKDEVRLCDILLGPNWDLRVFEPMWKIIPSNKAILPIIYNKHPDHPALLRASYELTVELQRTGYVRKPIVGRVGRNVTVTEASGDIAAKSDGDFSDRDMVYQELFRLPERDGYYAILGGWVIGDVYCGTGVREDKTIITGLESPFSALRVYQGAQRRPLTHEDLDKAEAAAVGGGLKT
# experimental details: biochemical
# Assay type: biochemical
experimental endpoint: TcTryS Activity ± 2σn-1 (%)

- Fc1ccc(CNCCCCCCCCCCCCNCc2ccc(F)cc2)cc1: 56.3 ± 3.6; 3%
- COc1ccc(CNCCCCCCCCCCCCNCc2ccc(OC)cc2)cc1: 82.8 ± 7.6; 3%
- COc1ccc(C2C(C(=O)c3ccc4c(c3)OCCO4)=C(O)C(=O)N2c2nc3ccc(C)cc3s2)cc1OC (stereo not shown): 109.3 ± 4.7; 4%
- O=C(C1=C(O)C(=O)N(c2nc3ccc(Cl)cc3s2)C1c1ccccc1)c1ccc2c(c1)OCCO2 (stereo not shown): 97.2 ± 7.8; 2%
- Cc1ccc2nc(N3C(=O)C(O)=C(C(=O)c4ccc5c(c4)OCCO5)C3c3ccccc3)sc2c1 (stereo not shown): 97.0 ± 5.2; 3%
- CCCCn1c(=O)[nH]c(=O)c2c1nc(CSc1cccc(C(F)(F)F)c1)n2C [Compound C3, reference compound]: 91.1 ± 4.6; 4%
- Clc1ccc(CNCCCCCCCCNCc2ccc(Cl)cc2)cc1: 87.9 ± 4.7; 4%
- [O-][n+]1onc2cc(F)ccc21: 118.8 ± 6.1; 4 (1.00) %
- [O-][n+]1onc2cc(Cl)c(Cl)cc21: 84.9 ± 4.4; 3%
- COc1ccc(CNCCCCCCNCc2ccc(OC)cc2)cc1: 94.2 ± 5.5; 2%

====

# subject of test: LiTryS (Leishmania infantum trypanothione synthetase) (Leishmania infantum, UniProt A4I2Z3)
# Sequence (A4I2Z3 1-652): as the sequence (A4I2Z3 entry or part of it) above
# experimental details: biochemical
# Assay type: biochemical
experimental endpoint: LiTryS Activity ± 2σn-1 (%)

• CCCCn1c(=O)[nH]c(=O)c2c1nc(CSc1cccc(C(F)(F)F)c1)n2C [Compound C3, reference compound] = 84.5 ± 3.3; 3%
• c1ccc(CNCCCCCCCCCCCCNCc2ccccc2)cc1 [EAP1-9] = 89.6 ± 9.4; 3%
• Clc1ccc(CNCCCCCCCCCCNCc2ccc(Cl)cc2)cc1 [EAP1-53] = 69 ± 5.7; 4 (1.305) %
• [O-][n+]1onc2cc(I)ccc21 [Compound J27] = 71.0 ± 8.0; 3%
• Cc1cc2no[n+]([O-])c2cc1C [Compound J11] = 103.6 ± 10.4; 3%
• CC(C)c1ccc(CNCCCCCCCCNCc2ccc(C(C)C)cc2)cc1 [EAP1-37] = 77.4 ± 7.9; 9 (1.284) %
• [O-][n+]1onc2cc(Cl)ccc21 [Compound J12] = 93.8 ± 3.9; 4%
• COc1cc(CNCCCCCCNCc2ccc(O)c(OC)c2)ccc1O [APC1-121] = 95.0 ± 7.8; 4%
• [O-][n+]1onc2cc(Cl)c(Cl)cc21 [Compound J13] = 102.2 ± 7.8; 3%
• Brc1ccc(CNCCCCCCCCNCc2ccc(Br)cc2)cc1 [EAP1-46] = 61.8 ± 3.9; 3%
